# Target Under Test: M4 muscarinic receptor (Homo sapiens, UniProt P08173)
# Construct: expressed in transfected cells; host or cells: CHO (M4-CHO)
# Sequence (P08173 whole entry): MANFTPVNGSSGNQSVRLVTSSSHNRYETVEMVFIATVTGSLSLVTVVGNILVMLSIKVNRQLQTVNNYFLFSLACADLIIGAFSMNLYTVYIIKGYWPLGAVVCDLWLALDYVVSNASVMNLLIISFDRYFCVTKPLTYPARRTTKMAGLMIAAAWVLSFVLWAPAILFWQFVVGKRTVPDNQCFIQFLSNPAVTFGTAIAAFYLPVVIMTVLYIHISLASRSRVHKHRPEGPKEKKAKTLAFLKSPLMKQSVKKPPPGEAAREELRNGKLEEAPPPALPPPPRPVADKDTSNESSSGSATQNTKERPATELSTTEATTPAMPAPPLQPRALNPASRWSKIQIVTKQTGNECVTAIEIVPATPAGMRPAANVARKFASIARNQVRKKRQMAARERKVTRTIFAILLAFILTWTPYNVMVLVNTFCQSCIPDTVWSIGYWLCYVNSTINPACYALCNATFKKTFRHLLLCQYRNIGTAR
# Protocol Summary: Functional mobilization of intracellular calcium (FLIPR) in M4-CHO cells
# Type: cell-based
# Setup Conditions: M4 receptor, calcium mobilization; read-out: M4 Efficacy
Recorded measurements of Emax, one per entry

- Molecule: "CC(=O)N1CC2(CCN(C3CC4CCC(C3)N4C(=O)O[C@@H]3CCOC3)CC2)c2cc(F)ccc21 (some centres unmarked)"
  Emax: "< 65%"
- Molecule: "CCOC(=O)N1CCC(N2CCC3(CC2)CN(C(C)=O)c2ccc(-c4ccccc4OC)cc23)CC1"
  Emax: "> 85%"
- Molecule: "CCCOC(=O)N1CCC(CN2CCC3(CC2)CN(C(C)=O)c2ccc(C)cc23)CC1"
  Emax: "< 65%"
- Molecule: "CC(=O)N1CC2(CCN(C3CC4CCC3C4)CC2)c2cc(C)ccc21 (centres unmarked)"
  Emax: "65 to 85%"
- Molecule: "CC(=O)N[C@H]1CC2(CCN(C3CCC(C)CC3)CC2)c2ccccc21 (some centres unmarked)"
  Emax: "65 to 85%"
- Molecule: "COC(=O)N1CC2(CCN(C3CC4CCC(C3)N4C(=O)OC)CC2)c2cc(F)ccc21 (centres unmarked)"
  Emax: "65 to 85%"
- Molecule: "Clc1ccc2c(c1)C1(CCN(C3CCCCC3)CC1)CO2"
  Emax: "> 85%"
- Molecule: "CCOC(=O)N1CCC(N2CCC3(CC2)CN(C(=O)OCC(C)(C)C)c2ccc(F)cc23)CC1"
  Emax: "< 65%"
- Molecule: "O=C(OC1CCCC1)N1C2CCC1CC(N1CCC3(CC1)C(=O)Nc1ccccc13)C2 (centres unmarked)"
  Emax: "< 65%"
- Molecule: "CCOC(=O)N1C2CCC1CC(N1CCC3(CC1)CN(C(=O)C1CC1)c1ccc(F)cc13)C2 (centres unmarked)"
  Emax: "< 65%"
- Molecule: "C=Cc1ccc2c(c1)C1(CCN(C3CCN(C(=O)OCC)CC3)CC1)CN2C(C)=O"
  Emax: "< 65%"
- Molecule: "CCOC(=O)N1CCC(N2CCC3(CC2)CN(C(=O)c2ccc(OC)cc2)c2ccc(F)cc23)CC1"
  Emax: "> 85%"
- Molecule: "CCOC(=O)N1CCC(N2CCC3(CC2)CN(C(=O)c2cccnc2)c2ccc(F)cc23)CC1"
  Emax: "> 85%"
- Molecule: "CC#CCOC(=O)N1CC2(CCN(C3CCN(C(=O)OCC)CC3)CC2)c2cc(F)ccc21"
  Emax: "< 65%"
- Molecule: "CCOC(=O)N1CCC(N2CCC3(CC2)CN(C(C)=O)c2ccc(-c4ccncc4)cc23)CC1"
  Emax: "< 65%"
- Molecule: "CCOC(=O)N1CCC(N2CCC3(CC2)CN(C(=O)c2ccccc2C)c2ccc(F)cc23)CC1"
  Emax: "65 to 85%"
- Molecule: "CC=CCOC(=O)N1C2CCC1CC(N1CCC3(CC1)CN(C(=O)N(C)C)c1ccc(F)cc13)C2 (centres unmarked)"
  Emax: "< 65%"
- Molecule: "CCCOC(=O)N1C2CCC1CC(N1CCC3(CC1)CN(C(=O)C1CCC1)c1ccc(F)cc13)C2 (centres unmarked)"
  Emax: "< 65%"
- Molecule: "Cc1ccc2c(c1)C1(CCN(C3CC4CCC3C4)CC1)CN2C(=O)c1cc(C)on1 (centres unmarked)"
  Emax: "< 65%"
- Molecule: "Cc1ccc2c(c1)C1(CCN(CC3CC4CCC3O4)CC1)CN2 (centres unmarked)"
  Emax: "> 85%"
- Molecule: "COC(=O)N1CCC(CN2CCC3(CC2)CN(C(C)=O)c2ccc(F)cc23)CC1"
  Emax: "< 65%"
- Molecule: "CC(=O)N[C@H]1CC2(CCN(C3C[C@H]4CC[C@@H]3C4)CC2)c2ccccc21 (some centres unmarked)"
  Emax: "> 85%"
- Molecule: "CC(C)OC(=O)N1C2CCC1CC(N1CCC3(CC1)CN(C(=O)N(C)C)c1ccc(F)cc13)C2 (centres unmarked)"
  Emax: "< 65%"
- Molecule: "CCOC(=O)N1CCC(CN2CCC3(CC2)C[C@H](NC(C)=O)c2ccccc23)CC1"
  Emax: "65 to 85%"
- Molecule: "CCCCOC(=O)N1CC2(CCN(C3CCN(C(=O)OCC)CC3)CC2)c2cc(F)ccc21"
  Emax: "< 65%"
- Molecule: "COC(=O)N1CCC(N2CCC3(CC2)CN(C(C)=O)c2ccc(F)cc23)CC1"
  Emax: "65 to 85%"
- Molecule: "CC(C)C(=O)N[C@H]1CC2(CCN(C[C@H]3C[C@H]4CC[C@H]3C4)CC2)c2ccccc21"
  Emax: "65 to 85%"
- Molecule: "C#CCCOC(=O)N1CCC(N2CCC3(CC2)CN(C(=O)N(C)C)c2ccc(F)cc23)CC1"
  Emax: "< 65%"
- Molecule: "CC(C)NC(=O)N1C2CCC1CC(N1CCC3(CC1)COc1ccc(F)cc13)C2 (centres unmarked)"
  Emax: "< 65%"
- Molecule: "CCOC(=O)N1CCC(N2CCC3(CC2)CN(C(C)=O)c2ccc(-c4ccccc4F)cc23)CC1"
  Emax: "> 85%"
- Molecule: "CCOC(=O)N1CCC(N2CCC3(CC2)CN(CCC(=O)CC)c2ccc(F)cc23)CC1"
  Emax: "> 85%"
- Molecule: "CC(=O)NC1CC2(CCN(C3CCCCCC3)CC2)c2ccccc21 (centres unmarked)"
  Emax: "> 85%"
